- tested_target: BRM (Homo sapiens)
- Construct: In-Cell Western Screen of BRM Degradation in SW1573 Cells; endogenous in cells; host or cells: SW1573
- Sequence (P51531 whole entry): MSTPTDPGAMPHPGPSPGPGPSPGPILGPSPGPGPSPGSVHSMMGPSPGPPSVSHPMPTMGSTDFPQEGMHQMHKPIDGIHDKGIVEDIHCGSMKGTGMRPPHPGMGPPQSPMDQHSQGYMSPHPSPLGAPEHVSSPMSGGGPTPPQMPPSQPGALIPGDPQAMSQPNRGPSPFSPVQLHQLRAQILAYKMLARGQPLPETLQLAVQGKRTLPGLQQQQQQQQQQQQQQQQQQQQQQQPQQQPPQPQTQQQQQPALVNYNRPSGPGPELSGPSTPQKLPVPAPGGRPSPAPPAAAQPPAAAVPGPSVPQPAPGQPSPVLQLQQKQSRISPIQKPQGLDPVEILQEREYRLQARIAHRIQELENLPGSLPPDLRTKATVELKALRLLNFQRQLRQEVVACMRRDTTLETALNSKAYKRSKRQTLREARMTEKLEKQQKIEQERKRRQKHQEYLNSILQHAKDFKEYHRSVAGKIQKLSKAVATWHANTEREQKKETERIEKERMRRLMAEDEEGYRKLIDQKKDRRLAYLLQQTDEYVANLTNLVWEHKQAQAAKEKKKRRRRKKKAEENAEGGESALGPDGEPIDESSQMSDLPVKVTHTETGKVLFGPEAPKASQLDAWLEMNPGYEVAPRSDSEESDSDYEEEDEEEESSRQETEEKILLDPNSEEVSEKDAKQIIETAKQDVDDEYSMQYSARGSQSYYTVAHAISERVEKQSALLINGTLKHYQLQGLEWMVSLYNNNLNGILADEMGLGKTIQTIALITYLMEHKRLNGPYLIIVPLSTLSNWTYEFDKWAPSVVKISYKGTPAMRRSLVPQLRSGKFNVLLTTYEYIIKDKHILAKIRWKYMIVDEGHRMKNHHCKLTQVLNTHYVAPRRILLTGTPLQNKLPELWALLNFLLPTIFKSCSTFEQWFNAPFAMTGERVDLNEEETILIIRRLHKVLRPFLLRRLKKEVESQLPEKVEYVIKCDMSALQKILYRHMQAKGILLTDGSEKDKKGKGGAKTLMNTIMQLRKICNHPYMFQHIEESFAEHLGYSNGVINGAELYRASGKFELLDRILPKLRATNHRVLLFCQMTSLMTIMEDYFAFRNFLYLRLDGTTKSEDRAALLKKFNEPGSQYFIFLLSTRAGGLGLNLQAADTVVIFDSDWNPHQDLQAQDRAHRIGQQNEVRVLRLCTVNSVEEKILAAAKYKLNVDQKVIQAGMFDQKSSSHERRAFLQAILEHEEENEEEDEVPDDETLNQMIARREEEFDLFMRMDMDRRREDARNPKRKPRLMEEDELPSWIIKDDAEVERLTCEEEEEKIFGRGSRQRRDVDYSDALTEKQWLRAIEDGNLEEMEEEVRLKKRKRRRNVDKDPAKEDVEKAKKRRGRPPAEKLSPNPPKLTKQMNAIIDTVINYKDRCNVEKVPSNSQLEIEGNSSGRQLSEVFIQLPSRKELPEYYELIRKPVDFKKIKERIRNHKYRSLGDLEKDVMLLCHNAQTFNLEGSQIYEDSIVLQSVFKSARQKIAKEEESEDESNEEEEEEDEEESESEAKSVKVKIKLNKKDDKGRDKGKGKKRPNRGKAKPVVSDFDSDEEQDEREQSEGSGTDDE
- test_protocol: In-cell Western screen of BRM degradation in SW1573 cells (Dmax and DC50)
- Type: cell-based
- details: BRM degradation, SW1573 cells; Table 2D; read-out: *DC50
parameter_measured: DC50

Examples with their reported DC50 follow.
[[record]]
compound = "Cc1ncsc1-c1ccc([C@H](C)NC(=O)[C@@H]2C[C@@H](O)CN2C(=O)[C@@H](c2cc(OCC[C@@H]3CCN(C[C@H]4C[C@H](Oc5cc(N6C7CCC6CN(c6cc(-c8ccccc8O)nnc6N)C7)ccn5)C4)[C@H](C)C3)no2)C(C)C)cc1 (racemic)"
recorded_measurement = "< 2.5 nM"

[[record]]
compound = "Cc1ncsc1-c1ccc([C@H](C)NC(=O)[C@@H]2C[C@@H](O)CN2C(=O)[C@@H](c2cc(N3CCC4(CC3)CN(C[C@H]3C[C@H](Oc5cc(N6C7CCC6CN(c6cc(-c8ccccc8O)nnc6N)C7)ccn5)C3)CCO4)no2)C(C)C)cc1"
recorded_measurement = "< 2.5 nM"

[[record]]
compound = "Cc1nccn1-c1ccc([C@H](C)NC(=O)[C@@H]2C[C@@H](O)CN2C(=O)[C@@H](c2cc(N3CCC(CN4CCC(O[C@H]5C[C@H](Oc6cc(N7C8CCC7CN(c7cc(-c9ccccc9O)nnc7N)C8)ccn6)C5)CC4)CC3)no2)C(C)C)cc1"
recorded_measurement = "10 to 30 nM"


Lab note: next compound to report on.
Task: Respond only with DC50 recorded for `Cc1nccn1-c1ccc([C@H](C)NC(=O)[C@@H]2C[C@@H](O)CN2C(=O)[C@H](c2cc(N3CCC(O[C@H]4C[C@H](Oc5cc(N6C7CCC6CN(c6cc(-c8ccccc8O)nnc6N)C7)ccn5)C4)CC3)no2)C(C)C)cc1`
Output: > 30 nM
